- assayed.target: CDK6 CCND1 (human) (UniProt Q00534+P24385)
- Sequence (P24385 whole entry, looked up): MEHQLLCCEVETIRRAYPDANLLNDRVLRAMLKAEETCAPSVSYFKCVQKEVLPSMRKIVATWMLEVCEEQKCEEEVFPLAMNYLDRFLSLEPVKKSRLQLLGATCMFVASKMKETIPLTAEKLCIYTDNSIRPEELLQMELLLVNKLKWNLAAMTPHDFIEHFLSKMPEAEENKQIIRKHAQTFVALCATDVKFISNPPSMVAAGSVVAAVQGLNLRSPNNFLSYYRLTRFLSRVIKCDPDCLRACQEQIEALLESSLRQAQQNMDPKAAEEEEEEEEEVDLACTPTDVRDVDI
- Sequence (Q00534 whole entry, looked up): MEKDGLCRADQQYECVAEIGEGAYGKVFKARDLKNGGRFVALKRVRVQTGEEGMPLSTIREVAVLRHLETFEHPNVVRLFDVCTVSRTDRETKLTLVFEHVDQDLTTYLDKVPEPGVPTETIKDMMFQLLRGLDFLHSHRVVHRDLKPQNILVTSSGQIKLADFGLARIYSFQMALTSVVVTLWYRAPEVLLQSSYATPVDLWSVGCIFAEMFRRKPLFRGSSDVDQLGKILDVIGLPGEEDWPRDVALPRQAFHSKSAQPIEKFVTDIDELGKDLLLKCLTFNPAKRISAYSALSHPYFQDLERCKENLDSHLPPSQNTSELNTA
- assay.procedure: radiometric filter-binding kinase assay, Kinase HotSpot
- settings: compound 0.5 µM; ATP 10 µM
# maps each entry to its residual activity
Report the value in % with no unit label.

query.smiles: O=C1NC(=O)c2cc(Nc3ccc(F)cc3)c(Nc3ccc(F)cc3)cc21
obs.value: 99

Problem: Item `COc1cc2c(cc1OC)-c1[nH]nc(Nc3cccc(F)c3)c1C2` has what recorded residual activity?
Solution: 92.9

Problem: Now the same for `O=C(O)c1ccc2c3c1cccc3c(=O)n1c3ccccc3nc21`
Solution: 90.6

Problem: Now the same for `O=c1cc(N2CCOCC2)oc2c(-c3ccccc3)cccc12`
Solution: 97.9

Problem: Now the same for `N#C/C(=C1/Nc2ccccc2S1)c1ccnc(NCCc2cccnc2)n1`
Solution: 89.7

Problem: Now the same for `O=C1NC(=O)c2c1c1c3ccccc3[nH]c1c1[nH]c3cc(Br)ccc3c21`
Solution: 12.2

Problem: Now the same for `CCc1nc(-c2ccc(OC)cc2)[nH]c1-c1ccncc1`
Solution: 101

Problem: Now the same for `COc1cccc(-c2cc(=O)c3ccccc3o2)c1N`
Solution: 95.5

Problem: Now the same for `N/C(=N\N=C/c1ccc(-c2cccc([N+](=O)[O-])c2)o1)N[N+](=O)[O-]`
Solution: 100
